Molecular target: α3β4α5 nAChR (Homo sapiens, UniProt P30532+P30926+P32297)
Sequence (P32297 32-505): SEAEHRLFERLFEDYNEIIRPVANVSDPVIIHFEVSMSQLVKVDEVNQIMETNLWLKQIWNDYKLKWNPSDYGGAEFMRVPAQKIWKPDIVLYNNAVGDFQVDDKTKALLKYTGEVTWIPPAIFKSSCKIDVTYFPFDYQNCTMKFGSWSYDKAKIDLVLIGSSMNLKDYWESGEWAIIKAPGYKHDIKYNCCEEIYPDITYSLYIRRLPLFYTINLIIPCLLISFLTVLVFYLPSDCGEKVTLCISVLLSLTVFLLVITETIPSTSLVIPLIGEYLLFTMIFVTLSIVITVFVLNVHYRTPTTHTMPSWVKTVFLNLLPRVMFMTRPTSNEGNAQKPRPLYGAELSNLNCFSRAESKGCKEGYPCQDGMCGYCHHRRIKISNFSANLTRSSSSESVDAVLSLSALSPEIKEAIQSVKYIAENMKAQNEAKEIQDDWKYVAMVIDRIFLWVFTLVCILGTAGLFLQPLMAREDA
Sequence (P30926 22-498): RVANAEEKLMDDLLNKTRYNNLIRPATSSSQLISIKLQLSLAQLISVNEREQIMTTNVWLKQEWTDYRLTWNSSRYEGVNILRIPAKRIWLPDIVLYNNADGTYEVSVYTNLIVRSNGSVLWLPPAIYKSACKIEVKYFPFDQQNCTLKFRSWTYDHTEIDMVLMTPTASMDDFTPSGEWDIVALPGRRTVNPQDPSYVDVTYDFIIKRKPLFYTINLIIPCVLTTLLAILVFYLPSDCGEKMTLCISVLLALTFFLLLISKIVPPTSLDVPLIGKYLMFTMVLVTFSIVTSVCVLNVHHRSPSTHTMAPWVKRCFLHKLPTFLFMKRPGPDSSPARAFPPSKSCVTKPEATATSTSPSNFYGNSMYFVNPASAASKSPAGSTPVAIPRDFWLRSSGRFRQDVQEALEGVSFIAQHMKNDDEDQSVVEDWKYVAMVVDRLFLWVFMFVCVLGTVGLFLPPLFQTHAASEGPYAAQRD
Sequence (P30532 23-468): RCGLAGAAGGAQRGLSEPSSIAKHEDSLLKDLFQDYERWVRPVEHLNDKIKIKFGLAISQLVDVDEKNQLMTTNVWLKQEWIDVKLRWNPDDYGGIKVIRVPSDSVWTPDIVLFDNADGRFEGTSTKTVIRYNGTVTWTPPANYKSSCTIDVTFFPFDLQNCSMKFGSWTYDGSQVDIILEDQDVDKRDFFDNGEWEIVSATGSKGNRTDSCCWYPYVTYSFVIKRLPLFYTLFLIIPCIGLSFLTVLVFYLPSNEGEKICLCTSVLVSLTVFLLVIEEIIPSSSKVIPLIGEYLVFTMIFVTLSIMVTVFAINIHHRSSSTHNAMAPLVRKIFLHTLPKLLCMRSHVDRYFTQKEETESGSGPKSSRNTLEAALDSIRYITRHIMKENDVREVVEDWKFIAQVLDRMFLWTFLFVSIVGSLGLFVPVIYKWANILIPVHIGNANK
Assay: cell-based

>  <COMPOUND>
NC1=NCC2c3ccccc3Cc3ccccc3N12 (stereo not shown) [epinastine]

>  <TARGET SYSTEM>
α3β4α5 nAChR (Homo sapiens, UniProt P30532+P30926+P32297)

>  <IC50>
≥ 1 µM

$$$$

###

Target: α4β2 nAChR (Homo sapiens, UniProt P17787+P43681)
Sequence (P43681 29-627 limits assumed): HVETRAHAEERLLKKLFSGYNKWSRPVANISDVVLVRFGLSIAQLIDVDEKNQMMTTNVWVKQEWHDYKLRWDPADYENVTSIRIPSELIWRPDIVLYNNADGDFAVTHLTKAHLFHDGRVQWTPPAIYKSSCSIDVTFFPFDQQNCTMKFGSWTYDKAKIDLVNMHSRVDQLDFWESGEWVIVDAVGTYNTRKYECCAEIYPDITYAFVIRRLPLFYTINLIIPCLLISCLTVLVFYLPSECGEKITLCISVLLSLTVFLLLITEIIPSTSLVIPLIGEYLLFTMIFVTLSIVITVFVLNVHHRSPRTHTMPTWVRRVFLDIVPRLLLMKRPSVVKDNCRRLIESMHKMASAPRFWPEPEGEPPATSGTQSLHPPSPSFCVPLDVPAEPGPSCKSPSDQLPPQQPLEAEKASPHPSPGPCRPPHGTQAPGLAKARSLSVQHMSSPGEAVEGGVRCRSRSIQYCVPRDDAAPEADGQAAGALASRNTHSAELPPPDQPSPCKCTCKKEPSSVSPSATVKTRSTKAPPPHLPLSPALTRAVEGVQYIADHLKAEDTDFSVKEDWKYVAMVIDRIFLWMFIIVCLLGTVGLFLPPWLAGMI
Sequence (P17787 26-502): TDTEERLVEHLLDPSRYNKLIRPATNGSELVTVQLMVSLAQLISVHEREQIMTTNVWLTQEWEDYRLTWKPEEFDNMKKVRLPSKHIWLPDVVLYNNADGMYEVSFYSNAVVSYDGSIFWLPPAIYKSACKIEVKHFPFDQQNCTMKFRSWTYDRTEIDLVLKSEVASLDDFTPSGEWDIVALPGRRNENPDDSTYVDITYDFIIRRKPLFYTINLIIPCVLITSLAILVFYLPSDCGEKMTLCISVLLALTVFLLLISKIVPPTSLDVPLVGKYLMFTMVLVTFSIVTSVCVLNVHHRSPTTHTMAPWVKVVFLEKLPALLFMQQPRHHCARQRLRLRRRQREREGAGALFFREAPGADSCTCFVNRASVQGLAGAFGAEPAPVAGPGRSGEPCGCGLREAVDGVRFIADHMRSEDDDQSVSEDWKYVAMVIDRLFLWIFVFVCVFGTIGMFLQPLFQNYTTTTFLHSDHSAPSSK
Assay: cell-based
pIC50: −log10 of the molar value.
VALUE TYPE: pIC50

>  <MOLECULE>
NC1=NCC2c3ccccc3Cc3ccccc3N12 (stereo not shown) [epinastine]

>  <VALUE MEASURED>
≤ 6.00

$$$$
